- ASSAY SUMMARY: yeast display, Sf9 membrane polyspecificity reagent, FACS + sequencing; frameworks hold sequencing errors

{"SEQUENCE TEXT": "QVQLVESGGGLVQAGGSLRLSCAASGFTFQKNAMGWNRQAPGKERDLVARITRSDGSTYYADSVKGRFTISRDNAKNTVYLPMNSLKPEDTAVYYWAARYCRLGSSRGGYWGQCTQVTVSS", "polyreactivity (PSR sort gate)": "low polyreactivity"}
{"SEQUENCE TEXT": "QVQLVESGGGLVQAGGSLRLSCAASGFTFAVYVMGWYRQAPGKERELVATISFSVGSTYYADSVKGRFTISRDNAKNTVYLQMNSLKPEDTAVYDCNADPPPEYYPDKDNYWGQGTQVTVSS", "polyreactivity (PSR sort gate)": "low polyreactivity"}
{"SEQUENCE TEXT": "QVQLVESGGGLVQAGGSLRLSCAASGFTFKQYGMGWYRQAPGKERELVASISYRGGSTHYADSVKGRFTISRDNAKNTVYLQMNSLKPEDTAVYYCAARVTSRTSIKGDYWGQGTQVTVSS", "polyreactivity (PSR sort gate)": "low polyreactivity"}
{"SEQUENCE TEXT": "QVQLVESGGGLVQAGGSLRISCAASGSIFSWKDMGWYRQAPGKERELVAAITSGGSTYYADSVKGRFTISRDNAKNTVYLQMNSLKPEDTAVYYCAAVFLLFGFEWSYDYWGQGTQVTVTS", "polyreactivity (PSR sort gate)": "low polyreactivity"}
{"SEQUENCE TEXT": "QFQLVESGGGLVQAGGSLRLSCAASGSTFPYYAMGWYRQAPGNERELVASIRKRGGGTYYADSVKGRFTISRDNAKNTVYFQMNILKPEDTAVYYCAVRVYQFRYTGYDYWGQGTQVTVSS", "polyreactivity (PSR sort gate)": "high polyreactivity"}
{"SEQUENCE TEXT": "QVQLVESGGGLVQAGGSLRLSCAASGSIFRYYAMGWYRQAPGKERELVAAITSGGRTNYADSVKGRFTISRDNAKNTVYLQMNSLKPEDSAVYYCNKGYNAVWRYRGDYWGQGTQVTVSS", "polyreactivity (PSR sort gate)": "high polyreactivity"}
{"SEQUENCE TEXT": "QVQLVESGGGLVHAGGSLRLSCAASGIIFGSYAMGWYRQAPGKERELVAAITRSGGRTYYADSVKGRFTISRDNAKNTVYLQMNSLKPEDTAVYYCAADRGYRGATGKYDSWGQGTEVTVSS", "polyreactivity (PSR sort gate)": "high polyreactivity"}
{"SEQUENCE TEXT": "QVQLVESGGGLVQAGGSLRLSCAASGRIYGPNAMGWYRQAPGKERELVAAISTSGGSTYYADSVKGRFTISRDNAKNTVYLQMNSLKPEDTAVYYCNVVHRGSWYYFWGQGTQVTVSS", "polyreactivity (PSR sort gate)": "high polyreactivity"}
{"SEQUENCE TEXT": "QVQLVESGGGLVQAGGSLRLSCAASGGIFTQYVMGWYRQAPGKERELVAAINWSGGSTTYAYSVKGRFTISRDNAKNTVYLQMNSLKPEVTAVYYCAAYSYREFYYWGQGTQVTVSS", "polyreactivity (PSR sort gate)": "high polyreactivity"}
{"SEQUENCE TEXT": "QVQLVESGGGLVQAGGSLRLSCAASGLTFYYYVMGWYRQAPGKERELVAAISKSGGRTYYADSVKGRFTISRDNAKNTVYLQMNSLKPEDTAVYYCAALYTPNYTAYDSWGQGTQVTVSS", "polyreactivity (PSR sort gate)": "high polyreactivity"}
{"SEQUENCE TEXT": "QVQLVESGGGLVQAGGSLRLSCAASGSTFFYNAMGWYRQAPGKERELVAAISKRGDRTYYADSVKGRFTISRDNAKNTVYLQMNSLKPEDTAVYYCAADSYSFSYYIEYDYWGQGTQVTVSS", "polyreactivity (PSR sort gate)": "high polyreactivity"}

###

- ASSAY SUMMARY: yeast display, Sf9 membrane polyspecificity reagent, FACS + sequencing; frameworks hold sequencing errors
PROPERTY: polyreactivity (PSR sort gate)

{"SEQUENCE TEXT": "QVQLEESGGRLVQAGGSLRLICAASGSTFLANAMGWYRQAPGKERELVATISSGGSTNYADSVKGRFTISRDNAKNTVYLQMNSLKPEDTAVYYCAAEYWYAWQEYGYWGQGTQVTVSS", "RESULT": "low polyreactivity"}
{"SEQUENCE TEXT": "QVQLQESGGGLVQAGGSLRLSCAASGSISAVGAMGWYRQAPGKEREFAASVNWGTNTNYADSVKGRFTISRDNAKNTLYLQMNSLKPEDTAVYYCAVLPDWETRHEYWGHGTQVTVSS", "RESULT": "low polyreactivity"}
{"SEQUENCE TEXT": "QVQLVESGGGLLQAGGSLRLSSAASGRTFPRYAMGWYRQAPGKERELVAAISVRAGITYYADSVKGRFTISRDNAKNTVYLQMNSLKPEDTAVYYCAKDHWTTSYDEGDYWGQGTQVTVSS", "RESULT": "low polyreactivity"}
{"SEQUENCE TEXT": "QVQIVESGGGLVQAGGSLRLSCAASGRIFRRYVMGWYRPAPGKERELVAAITKSGTSTYYADSVKGRFTISRDNAKNTVYLQMNSLKPEDTAVYYCAAVPYQSKYPRFGYWGQGTQVTVSS", "RESULT": "high polyreactivity"}
{"SEQUENCE TEXT": "QVQLVESGGGLVQAGGSLRLSCAASGRIFTRYAMGWYRQAPGKERELVAAITYNGGSTYYADSVKGRFTISRDNAKNTVYLQMNSLKPEDTAVYYCNAVYLSWFGLYAGFDYWGQGTQVTVSS", "RESULT": "high polyreactivity"}

###

- ASSAY SUMMARY: yeast display, Sf9 membrane polyspecificity reagent, FACS + sequencing; frameworks hold sequencing errors
PROPERTY: polyreactivity (PSR sort gate)

{"SEQUENCE TEXT": "QVQLQESGGGLVQAGGSPRLSCAASDNIFPDSVMCWYRQAPGKERELVATIGFGATTNYADSVKGRFTISRDNAKNTVYLQMNSLKPEDTAVYYCAADPLIYEYFCYWGQGSQVTVSS", "RESULT": "low polyreactivity"}
{"SEQUENCE TEXT": "QVHLVESGGGLVQAGGSLRLSCAASGITFISYAMGWYRQAPGKEREFVAAITRRGGSTYYADSVKGRFTISRDNAKNTVYLQMNSLKPEDTAVYYCAARVLSLYTYYYWGQGTQVTVSS", "RESULT": "high polyreactivity"}
{"SEQUENCE TEXT": "QVQLVESGGGLVQAGGSLRLSCAASGRTFYRYAMGWYRHAPGKERELVASITRGTSTNYADSVKGRFTISRDNAKNTVYLQMNSLKPEDTAVYYCNRRIFGGQRMYYWGQGTQVTVSS", "RESULT": "high polyreactivity"}
{"SEQUENCE TEXT": "QFQLVESGGGLVQAGGSLRLSCAASGSTFKSYAMGWYRQAPGKEREFVAVITWSGGRTSYADSVKGRFTISRDNAKNTVYLQMNSLKPEDTAVYYCAAKAASRYRAFTYDYWGQGTQVTVSS", "RESULT": "low polyreactivity"}
{"SEQUENCE TEXT": "QVQLVESGGGLVQAGGSLRLSCAASGSTFIYYAMGWNRQAPGKERELVDSISRSGGSTYYADSVKGRFTISRDNAKNTVYLQMNSLKPEDTAVYYCARAYRSSFNYWGQGTQVTVSS", "RESULT": "high polyreactivity"}
{"SEQUENCE TEXT": "QVQLVESGGGLVQAGGSLRISCAASGFTLEPNTMGWYRQAPWKERELVAGISWSGGSTYYADSVKGRFTISRDNAKNTVYLQMNSLKPEDTAVYYCNAPPVRRSIVYDRRDYWGQGTQVTVSS", "RESULT": "low polyreactivity"}
{"SEQUENCE TEXT": "QVQLVESGGGLVQAGGSLRLSCAASGFTLEYYAMGWYRQAPGKERELVASISSGGRTNYADSVKGRFTISRDNAKNTVYLQMNSLKPEDTAVYYCAAEYRSWGRYRYRFNYWGEGTQVTVSS", "RESULT": "high polyreactivity"}
{"SEQUENCE TEXT": "QVQLVESGGGLVQAGGSLRLSCAASGFTFGTNAMGWYRQAPGKERELVATISARGARTNYADSVKGRFTISRDNAKNTVYLQMNSLKPEDTAVYYCAADPGPHRYSYDYWGQGTQVTVSS", "RESULT": "high polyreactivity"}
{"SEQUENCE TEXT": "QVQLVESGGGLVQAGGSLRLTCAASGSIFRYYAMGWYRQAPGKERELVAAISSNGGSTYYADSVKGRFTISRDNAKNTVYLQMNSLKPEDTAVYYCAALFRRAPGYYWGQGTQVTVSS", "RESULT": "high polyreactivity"}
{"SEQUENCE TEXT": "QVQLVESGGGLVQAGGSLRLSCAASGFIFSYYAMGWYRQAPGTERELVAVITFSVGSPYYADSVKGRFTISRDNAQNTVYLLMNSLKPEDTAVYYCAARSYACAKRAYYYWGQGTQVTVSS", "RESULT": "high polyreactivity"}
{"SEQUENCE TEXT": "QVQLVESGGGLVQAGGSLRLSCAASGYIIRRYSMVWYIQAPGKESEWVAVISSRGGSTYYADSVKGRFTISRDYAKNTVYLQMNSLKPEDTPVYYCAARSGSRATVLSDYWGQGTQVTVSS", "RESULT": "high polyreactivity"}

Cited source: the nanobody polyreactivity screen of Harvey et al. (2022)
